System: Serratia marcescens
method: Antimicrobial activity against Ceftazidime non-susceptible Serratia marcescens by broth microdilution method
Format: functional
Catalogue of molecules with associated MIC90
readout: MIC90 (µg/mL)

>  <molecule>
CC(C)(O/N=C(\C(=O)N[C@@H]1C(=O)N2C(C(=O)[O-])=C(C[n+]3ccccc3)CS[C@H]12)c1csc(N)n1)C(=O)O [CEFTAZIDIME]

>  <tested-on>
Serratia marcescens

>  <units>
µg/mL

>  <prefix-operator>
>

>  <observed-measurement>
32

$$$$
>  <molecule>
CO/N=C(\C(=O)N[C@@H]1C(=O)N2C(C(=O)[O-])=C(C[N+]3(C)CCCC3)CS[C@H]12)c1csc(N)n1

>  <tested-on>
Serratia marcescens

>  <units>
µg/mL

>  <prefix-operator>
=

>  <observed-measurement>
16

$$$$
>  <molecule>
C[C@@H](O)[C@H]1C(=O)N2C(C(=O)O)=C(S[C@@H]3CN[C@H](C(=O)N(C)C)C3)[C@H](C)[C@H]12 [MEROPENEM]

>  <tested-on>
Serratia marcescens

>  <units>
µg/mL

>  <prefix-operator>
=

>  <observed-measurement>
0.25

$$$$
>  <molecule>
C[C@@H](O)[C@H]1C(=O)N2C(C(=O)O)=C(S[C@@H]3CN[C@H](CNS(N)(=O)=O)C3)[C@H](C)[C@H]12 [DORIPENEM]

>  <tested-on>
Serratia marcescens

>  <units>
µg/mL

>  <prefix-operator>
=

>  <observed-measurement>
0.25

$$$$
>  <molecule>
CO/N=C(\C(=O)N[C@@H]1C(=O)N2C(C(=O)O)=C(CSc3nc(=O)c(O)nn3C)CS[C@H]12)c1csc(N)n1 [CEFTRIAXONE]

>  <tested-on>
Serratia marcescens

>  <units>
µg/mL

>  <prefix-operator>
>

>  <observed-measurement>
64

$$$$
>  <molecule>
C[C@@H](O)[C@H]1C(=O)N2C(C(=O)O)=C(SCCNC=N)C[C@H]12 [IMIPENEM ANHYDROUS]

>  <tested-on>
Serratia marcescens

>  <units>
µg/mL

>  <prefix-operator>
=

>  <observed-measurement>
4

$$$$

* * *

Catalogue of molecules with associated Activity
Tested on: Citrobacter
method: Antimicrobial activity against Citrobacter with nonderepressed AmpC beta-lactamsae assessed as intermediate isolate by broth microdilution method
Format: functional

>  <molecule>
C[C@@H](O)[C@H]1C(=O)N2C(C(=O)O)=C(SCCNC=N)C[C@H]12 [IMIPENEM ANHYDROUS]

>  <Activity (%)>
0

$$$$
>  <molecule>
C[C@@H](O)[C@H]1C(=O)N2C(C(=O)O)=C(S[C@@H]3CN[C@H](C(=O)N(C)C)C3)[C@H](C)[C@H]12

>  <Activity (%)>
0

$$$$
>  <molecule>
CO/N=C(\C(=O)N[C@@H]1C(=O)N2C(C(=O)O)=C(CSc3nc(=O)c(O)nn3C)CS[C@H]12)c1csc(N)n1

>  <Activity (%)>
1.1

$$$$
>  <molecule>
CC(C)(O/N=C(\C(=O)N[C@@H]1C(=O)N2C(C(=O)[O-])=C(C[n+]3ccccc3)CS[C@H]12)c1csc(N)n1)C(=O)O

>  <Activity (%)>
0.4

$$$$
>  <molecule>
CO/N=C(\C(=O)N[C@@H]1C(=O)N2C(C(=O)[O-])=C(C[N+]3(C)CCCC3)CS[C@H]12)c1csc(N)n1

>  <Activity (%)>
0.2

$$$$
